Measured log10 of EC50 by item
- experimental system: PPAR-gamma (Homo sapiens)
- Construct: purchased Invitrogen
- Sequence (P37231 238-503 limits assumed): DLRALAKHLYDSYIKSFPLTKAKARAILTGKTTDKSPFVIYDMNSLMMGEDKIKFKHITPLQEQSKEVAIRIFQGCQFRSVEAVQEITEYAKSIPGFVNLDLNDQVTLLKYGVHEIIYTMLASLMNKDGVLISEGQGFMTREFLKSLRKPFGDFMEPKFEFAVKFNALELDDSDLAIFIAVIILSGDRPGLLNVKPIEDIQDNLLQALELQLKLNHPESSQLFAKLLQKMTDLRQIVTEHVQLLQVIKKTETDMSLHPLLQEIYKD
- assay info: Polar Screen PPAR Competitive Assay (fluorescence polarization ligand binding)
- measurement parameters: Table 1, tested substances; read-out: EC50
Lab note - EC50 converted to log10 from values in µM.

C=CCc1ccc(O)c(OC)c1
2.62
Oc1ccc([C@H]2COc3cc(O)ccc3C2)cc1
1.78
COc1ccc(-c2coc3cc(O)cc(O)c3c2=O)cc1
1.30
O=C1C[C@@H](c2ccc(O)c(O)c2)Oc2cc(O)cc(O)c21
1.82
O=C(Nc1ccccc1)c1cc([N+](=O)[O-])ccc1Cl [CW9662, 2-Chloro-5-nitrobenanilide, reference compound]
-1.97

Task item: Quick one: log10 of EC50 for O=C(/C=C/c1ccc(O)c(O)c1)O[C@H](Cc1ccc(O)c(O)c1)C(=O)O ?
Reply: 0.89

Task item: Quick one: log10 of EC50 for O=c1c(O)c(-c2ccc(O)c(O)c2)oc2cc(O)cc(O)c12 ?
Reply: 0.41

Task item: Quick one: log10 of EC50 for CCOC(=O)C=Cc1ccccc1 [Ethylcinnamate] ?
Reply: 3.43

Task item: Quick one: log10 of EC50 for O=CC=Cc1ccccc1 ?
Reply: 1.02

Task item: Quick one: log10 of EC50 for O=c1c(O)c(-c2ccccc2)oc2cc(O)cc(O)c12 ?
Reply: 2.16

###

- experimental system: PPAR-gamma (Homo sapiens)
- Construct: purchased Invitrogen
- assay info: Polar Screen PPAR Competitive Assay (fluorescence polarization ligand binding)
- measurement parameters: Table 1, tested substances; read-out: EC50
pEC50: −log10 of the molar value.
# cutoff 4 applies to pEC50; >= gives t, < gives f

# count of solved cases: 10
Oc1cc(O)c2c(c1)O[C@H](c1ccc(O)c(O)c1)[C@H](O)C2 [Epicatechin]
f
O=c1c(O)c(-c2ccccc2)oc2ccccc12 [3-Hydroxyflavon]
f
OCc1c[nH]c2ccccc12 [Indol-3-Carbinol]
f
O=C(/C=C/c1ccccc1O)c1ccccc1 [2-Hydroxychalcone]
t
O=C(O)/C=C/c1ccc(O)cc1 [p-Coumaric acid]
f
O=c1oc2cc(O)ccc2c2oc3cc(O)ccc3c12 [Coumestrol]
t
O=C(CCc1ccc(O)cc1)c1c(O)cc(O)cc1O [Phloretin]
t
COc1ccc([C@@H]2CC(=O)c3c(O)cc(O[C@@H]4O[C@H](CO[C@@H]5O[C@@H](C)[C@H](O)[C@@H](O)[C@H]5O)[C@@H](O)[C@H](O)[C@H]4O)cc3O2)cc1O [Hesperidin]
f
O=C(CCc1ccc(O)cc1)c1c(O)cc(O)cc1O[C@@H]1O[C@H](CO)[C@@H](O)[C@H](O)[C@H]1O [Phloridzin]
f
OC[C@H](Cc1cccc(O)c1)[C@H](CO)Cc1cccc(O)c1 [Enterodiol]
f

Task item: Decide: pEC50 of O=c1c(O)c(-c2ccc(O)cc2)oc2cc(O)cc(O)c12 [Kaempferol] >= 4?
Reply: f

Task item: Decide: pEC50 of CC(C(=O)c1ccc(O)cc1O)c1ccc(O)cc1 (stereo not shown) [ODMA, O-Desmethyl-angolenain] >= 4?
Reply: t

Task item: Decide: pEC50 of O=c1c(O)c(-c2cc(O)c(O)c(O)c2)oc2cc(O)cc(O)c12 [Myricetin] >= 4?
Reply: t

Task item: Decide: pEC50 of COc1cc(CNC(=O)CCCC/C=C/C(C)C)ccc1O [Capsaicin] >= 4?
Reply: f

Task item: Decide: pEC50 of O=c1c(OC2OC(CO)C(O)C(O)C2O)c(-c2ccc(O)c(O)c2)oc2cc(O)cc(O)c12 (stereo not shown) [Isoquercetrin] >= 4?
Reply: t

Task item: Decide: pEC50 of O=c1c(-c2ccc(O)cc2)coc2cc(O)ccc12 [Daidzein] >= 4?
Reply: f

Task item: Decide: pEC50 of O=c1cc(-c2ccc(O)c(O)c2)oc2cc(O)cc(O)c12 [Luteolin] >= 4?
Reply: t

Task item: Decide: pEC50 of O=C1OC[C@H](Cc2cccc(O)c2)[C@H]1Cc1cccc(O)c1 [Enterolacton] >= 4?
Reply: f

Sourced from patent US20080131534A1
